IC50 for assorted compounds
# tgt: human cathepsin F (Homo sapiens)
# Sequence (Q9UBX1 271-484): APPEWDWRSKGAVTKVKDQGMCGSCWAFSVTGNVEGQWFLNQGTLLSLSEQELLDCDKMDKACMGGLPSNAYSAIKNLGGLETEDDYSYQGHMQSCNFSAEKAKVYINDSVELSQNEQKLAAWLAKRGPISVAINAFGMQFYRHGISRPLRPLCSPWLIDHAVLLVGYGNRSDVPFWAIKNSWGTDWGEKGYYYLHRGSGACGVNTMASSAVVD
# protocolSummary: Cathepsin F assay (hCat F)
# Format: biochemical
# conditionsUsed: Z-Phe-Arg-AMC substrate, pH 5.5, 15 min preincubation; read-out: hCat F (IP (nM))

Looking up N#CC1(NC(=O)[C@@H]2CCCC[C@H]2c2nc(N3CCOCC3)sc2-c2ccc(N3CCS(=O)(=O)CC3)cc2)CC1 [Example 40] , I see its IC50 listed as ≥ 10000 nM

Record N#CC1(NC(=O)[C@@H]2CCCC[C@H]2c2nc(-c3cccc(F)c3)sc2-c2ccc(N3CCS(=O)(=O)CC3)cc2)CC1 [Example 64] , field IC50: 1330 nM

IC50 recorded for this compound, CC1(C)CC(c2nc([C@@H]3CCCC[C@H]3C(=O)NC3(C#N)CC3)c(-c3ccc(N4CCS(=O)(=O)CC4)cc3)s2)CC(C)(C)O1 [Example 93] , is ≥ 10000 nM

Entry N#CC1(NC(=O)[C@@H]2CCCC[C@H]2c2nc(N3CCCC(F)(F)C3)sc2-c2ccc(N3CCS(=O)(=O)CC3)cc2)CC1 [Example 106] , IC50 reported as ≥ 10000 nM

Sure, the documented IC50 for CN=S1(=O)CCN(c2ccc(-c3oc(C(C)(C)C)nc3[C@@H]3CC[C@H](F)C[C@H]3C(=O)N[C@H](C#N)C(C)C)cc2)CC1 [Example 174] is ≥ 10000 nM

The recorded IC50 for entry CC1(C)CN(c2nc([C@@H]3CCCC[C@H]3C(=O)NC3(C#N)CC3)c(-c3ccc(N4CCS(=O)(=O)CC4)cc3)s2)CC(C)(C)O1 [Example 101] equals ≥ 10000 nM

Form: compound = Cc1nc([C@@H]2CC[C@H](F)C[C@H]2C(=O)NC2(C#N)CC2)c(-c2ccc(N3CCOCC3)cc2)s1 [Compound 9] ; IC50 = ≥ 10000 nM

get_value(item= CC1(c2nc([C@@H]3CCCC[C@H]3C(=O)NC3(C#N)CC3)c(-c3ccc(N4CCS(=O)(=O)CC4)cc3)s2)CCOCC1 [Example 133] , readout=IC50) returns ≥ 10000 nM

--- query ---
Entry under test: N#CC1(NC(=O)[C@@H]2CCCC[C@H]2c2nc(NS(=O)(=O)c3ccccc3)sc2-c2ccc(N3CCS(=O)(=O)CC3)cc2)CC1 [Example 200] . Its IC50 was ≥ 10000 nM
